RUN DESCRIPTION: Elimination half life in human liver microsomes
Type: ADME, Microsome
CONDITIONS: read-out: beta t1/2 (converted)
Please provide measured half-life for the entries that follow.
// note: answer is a bare numeric in h

What does the data say about its half-life? Entry: CCc1cc(/C(C)=N/OCc2ccc(C3CCCCC3)c(C(F)(F)F)c2)ccc1CN1CC(C(=O)O[C@H]2CC[C@@]3(C)C(=CC[C@H]4[C@@H]5CC[C@H]([C@H](C)CCCC(C)C)[C@@]5(C)CC[C@@H]43)C2)C1
155

What does the data say about its half-life? Entry: C[C@H](OS(=O)(=O)O)[C@H]1CC[C@H]2[C@@H]3CC[C@H]4CC(C(=O)O)=CC[C@]4(C)[C@H]3CC[C@]12C
171
